The entries below are paired with their reported remaining at 10 min, 0.5 µM.
- measurement description: Metabolic stability in human liver microsomes assessed as parent compound remaining at 0.5 uM preincubated for 6 mins followed by NADPH addition measured after 10 mins by LC-MS/MS analysis
- Assay type: ADME, microsome
- condition summary: read-out: Stability
# number only, unit % dropped from output

IN: Which remaining at 10 min, 0.5 µM is reported for this compound? CC(=O)N1CCN(c2cccc(-c3cc(Cl)c4c(N)ncnn34)c2)C(=O)C1(C)C
OUT: 100

IN: Which remaining at 10 min, 0.5 µM is reported for this compound? CC(=O)N1CCN(c2cccc(-c3cc(C(F)(F)F)c4c(N)ncnn34)c2)C(=O)C1(C)C
OUT: 83

IN: Which remaining at 10 min, 0.5 µM is reported for this compound? CC(=O)N1C[C@@H](C)N(c2cc(-c3cc(C(F)(F)F)c4c(N)ncnn34)ccc2C#N)C(=O)C1(C)C
OUT: 90

###

- measurement description: Oral bioavailability in mouse at 6 mg/kg
- Type: ADME, organism-based
- condition summary: in vivo
quantity kind: bioavailability (%)
# number only, unit % dropped from output

IN: Which bioavailability is reported for this compound? CC(=O)N1CCN(c2cc(-c3cc(C(F)(F)F)c4c(N)ncnn34)ccc2C#N)C(=O)C1(C)C
OUT: 94

###

- measurement description: Half life in dog at 1 mg/kg, iv
- Format: ADME, organism-based, Canis lupus familiaris
- condition summary: in vivo
quantity kind: half-life (h)
# number only, unit h dropped from output

IN: Which half-life is reported for this compound? CC(=O)N1CCN(c2cc(-c3cc(C(F)(F)F)c4c(N)ncnn34)ccc2C#N)C(=O)C1(C)C
OUT: 29

###

- measurement description: Metabolic stability in rat liver microsomes assessed as parent compound remaining at 0.5 uM preincubated for 6 mins followed by NADPH addition measured after 10 mins by LC-MS/MS analysis
- Type: ADME, microsome
- condition summary: read-out: Stability
The entries below are paired with their reported remaining at 10 min, 0.5 µM.
# number only, unit % dropped from output

Reference set (5 entries):
> print(dat)
                                   compound  quantity.unit  measured.result
1  CC(=O)N1C[C@@H](C)N(c2cc(-c3cc(Cl)c4c(N)ncnn34)ccc2C#N)C(=O)C1(C)C              %               59
2  COc1ccc(-c2cc(Cl)c3c(N)ncnn23)cc1N1CCN(C(C)=O)C(C)(C)C1=O              %               91
3  CC(=O)N1CCN(c2cccc(-c3cc(-c4ccnn4C4CCOCC4)c4c(N)ncnn34)c2)C(=O)C1(C)C              %               81
4  CC(=O)N1CCN(c2cc(-c3cc(C(F)(F)F)c4c(N)ncnn34)ccc2S(C)(=O)=O)C(=O)C1(C)C              %               96
5  CC(=O)N1CCN(c2cc(-c3cc(Cl)c4c(N)ncnn34)ccc2S(C)(=O)=O)C(=O)C1(C)C              %              100

IN: Which remaining at 10 min, 0.5 µM is reported for this compound? CC(=O)N1CCN(c2cccc(-c3cc(Cl)c4c(N)ncnn34)c2)C(=O)C1(C)C
OUT: 57

IN: Which remaining at 10 min, 0.5 µM is reported for this compound? CC(=O)N1C[C@H](C)N(c2cc(-c3cc(Cl)c4c(N)ncnn34)ccc2C#N)C(=O)C1(C)C
OUT: 94

IN: Which remaining at 10 min, 0.5 µM is reported for this compound? CC(=O)N1CCN(c2cc(-c3cc(C(F)(F)F)c4c(N)ncnn34)ccc2C(C)O)C(=O)C1(C)C (racemic)
OUT: 100

IN: Which remaining at 10 min, 0.5 µM is reported for this compound? CC(=O)N1CCN(c2cc(-c3cc(Cl)c4c(N)ncnn34)ccc2C#N)C(=O)C1(C)C
OUT: 89

IN: Which remaining at 10 min, 0.5 µM is reported for this compound? CC(=O)N1CCN(c2cccc(-c3cc(-c4ccnn4CC(F)(F)F)c4c(N)ncnn34)c2)C(=O)C1(C)C
OUT: 70

IN: Which remaining at 10 min, 0.5 µM is reported for this compound? CC(=O)N1CCN(c2cc(-c3cc(Cl)c4c(N)ncnn34)ccc2C(C)O)C(=O)C1(C)C (racemic)
OUT: 100

IN: Which remaining at 10 min, 0.5 µM is reported for this compound? CC(=O)N1CCN(c2cc(-c3cc(Cl)c4c(N)ncnn34)ccc2Cl)C(=O)C1(C)C
OUT: 52

IN: Which remaining at 10 min, 0.5 µM is reported for this compound? CC(=O)N1CCN(c2cc(-c3cc(Cl)c4c(N)ncnn34)ccc2C)C(=O)C1(C)C
OUT: 60

IN: Which remaining at 10 min, 0.5 µM is reported for this compound? CC(=O)N1CCN(c2cc(-c3cc(C(F)(F)F)c4c(N)ncnn34)ccc2C(F)(F)F)C(=O)C1(C)C
OUT: 77

IN: Which remaining at 10 min, 0.5 µM is reported for this compound? CC(=O)N1CCN(c2cc(-c3cc(Cl)c4c(N)ncnn34)ccc2C(F)(F)F)C(=O)C1(C)C
OUT: 87

IN: Which remaining at 10 min, 0.5 µM is reported for this compound? COc1ccc(-c2cc(C(F)(F)F)c3c(N)ncnn23)cc1N1CCN(C(C)=O)C(C)(C)C1=O
OUT: 100

IN: Which remaining at 10 min, 0.5 µM is reported for this compound? CC(=O)N1CCN(c2cc(C)cc(-c3cc(Cl)c4c(N)ncnn34)c2)C(=O)C1(C)C
OUT: 100
